Items are presented alongside their recorded IC50.
Tested on: cultured human mast cells (CHMC)
Test Details: CHMC high cell density IgE activation: histamine
Assay type: cell-based
Measurement Parameters: anti-IgE activation
Readout Name: IC50 (nM)

[
  {
    "Molecule": "Oc1cccc(Nc2nc(Nc3ccc(OCCN4CCOCC4)cc3)ncc2F)c1 [R926699]",
    "Readout Name": "IC50",
    "Display Unit": "nM",
    "Qualifier Sign": "=",
    "Assay Result": 1440
  },
  {
    "Molecule": "O=C(c1cc2cc(Nc3ncc(F)c(Nc4cccc(O)c4)n3)ccc2o1)N1CCOCC1 [R926488]",
    "Readout Name": "IC50",
    "Display Unit": "nM",
    "Qualifier Sign": "=",
    "Assay Result": 792
  },
  {
    "Molecule": "N#CCOc1ccc(Nc2nc(Nc3cccc(O)c3)ncc2F)cc1 [R945071]",
    "Readout Name": "IC50",
    "Display Unit": "nM",
    "Qualifier Sign": "<",
    "Assay Result": 1100
  }
]
